Source listed as patent US20070077617.

Target: fusion protein PRG
Sequence (chain, as listed by the source): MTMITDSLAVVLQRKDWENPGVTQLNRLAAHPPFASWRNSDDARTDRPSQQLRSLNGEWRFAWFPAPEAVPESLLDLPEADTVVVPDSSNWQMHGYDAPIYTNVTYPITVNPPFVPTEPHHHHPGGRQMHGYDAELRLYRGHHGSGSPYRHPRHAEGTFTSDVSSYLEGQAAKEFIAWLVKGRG
recorded endpoint: relative cleavage efficiency

* OmpT protease variant OmpT D97F (protein) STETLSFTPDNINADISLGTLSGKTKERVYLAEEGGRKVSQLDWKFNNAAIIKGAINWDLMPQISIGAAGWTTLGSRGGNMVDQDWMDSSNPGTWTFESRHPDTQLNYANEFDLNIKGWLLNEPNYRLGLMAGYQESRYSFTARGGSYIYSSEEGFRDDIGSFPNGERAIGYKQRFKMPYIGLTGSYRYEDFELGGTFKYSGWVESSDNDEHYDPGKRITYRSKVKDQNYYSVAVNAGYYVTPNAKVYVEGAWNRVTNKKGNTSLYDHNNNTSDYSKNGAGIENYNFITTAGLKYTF | less than 3%
* OmpT protease variant OmpT D97E (protein) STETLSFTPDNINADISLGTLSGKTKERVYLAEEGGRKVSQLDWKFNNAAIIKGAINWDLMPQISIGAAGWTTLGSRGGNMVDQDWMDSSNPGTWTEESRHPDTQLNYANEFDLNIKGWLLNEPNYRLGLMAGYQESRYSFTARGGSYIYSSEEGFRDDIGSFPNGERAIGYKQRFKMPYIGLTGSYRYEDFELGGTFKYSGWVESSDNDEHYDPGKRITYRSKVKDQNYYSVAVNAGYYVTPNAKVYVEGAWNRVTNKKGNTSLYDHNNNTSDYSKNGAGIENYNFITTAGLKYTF | less than 3%
